These data points were gathered from patent US9440982B2.

# tgt: OX1 (Homo sapiens)
# Construct: expressed in transfected cells; host or cells: CHO (CHO-OX1, kept under selection antibiotic)
# Sequence (O43613 whole entry): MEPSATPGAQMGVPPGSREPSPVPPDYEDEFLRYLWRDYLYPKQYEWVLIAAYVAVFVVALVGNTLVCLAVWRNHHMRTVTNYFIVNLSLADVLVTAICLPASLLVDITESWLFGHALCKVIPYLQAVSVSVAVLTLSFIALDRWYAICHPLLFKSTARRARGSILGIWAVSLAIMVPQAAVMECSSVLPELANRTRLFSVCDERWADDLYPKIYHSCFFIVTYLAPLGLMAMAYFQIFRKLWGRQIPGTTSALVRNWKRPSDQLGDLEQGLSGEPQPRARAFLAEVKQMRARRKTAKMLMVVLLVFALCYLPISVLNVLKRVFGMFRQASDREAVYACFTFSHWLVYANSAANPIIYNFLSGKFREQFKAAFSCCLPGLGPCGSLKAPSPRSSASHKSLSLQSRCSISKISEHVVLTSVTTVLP
# assay-protocol: Orexin receptor cell-based functional assay, [Ca2+]i by FLIPR, CHO-OX1 cells
# condition-label: Table 2; CHO-OX1 cells, EC90 of OXA; read-out: IC50 Bioactivity OX1
pIC50: −log10 of the molar value.
// reported pIC50 for each item listed
quantity-kind: pIC50

>>> print(df.to_string())
                                    compound  prefix_operator  readout_number
 0  CC1CCCC(CCOc2ccccc2)N1C(=O)c1ccccc1-c1ccccc1 (racemic)                =            8.00
 1  Cc1nc(-c2ccccc2)c(C(=O)N2CC(O)CCC2CNC(=O)c2cccc3cccnc23)s1 (racemic)                =            7.70
 2  Cc1nc(-c2ccccc2)c(C(=O)N2CC(NCCO)CCC2CNC(=O)c2cccc3cccnc23)s1 (racemic)                >            5.00
 3  Cc1nc(C(=O)N2CCC[C@@H](C)[C@H]2CNc2cccc(C(F)(F)F)n2)c(-c2ccc(F)cc2)s1 (racemic)                =            6.66
 4  Cc1nc(C(=O)N2C[C@H]3CCC[C@H]3C2CNc2nc3ccccc3o2)c(-c2ccc(F)cc2)s1 (mixture of isomers)                =            8.10
 5  Cc1nc(C(=O)N2C[C@H]3CCC[C@H]3C2COc2nc3ccccc3o2)c(-c2ccc(F)cc2)s1 (mixture of isomers)                <            6.00
 6  Cc1ccc(-c2cncnc2)c(C(=O)N2CCC[C@@H](C)[C@H]2CNc2ccc(C(F)(F)F)cn2)c1 (racemic)                =            7.11
 7  Cc1nc(C(=O)N2CC(F)(F)CCC2CNC(=O)c2cccc3cccnc23)c(-c2cccc(F)c2)s1 (racemic)                =            9.00
 8  Cc1nc(C(=O)N2CCC[C@@H](C)[C@H]2CNc2nccnc2Cl)c(-c2ccc(F)cc2)s1 (racemic)                <            6.00
 9  Cc1nc(C(=O)N2CCC[C@@H](C)[C@H]2CNc2nc3ccccc3s2)c(-c2ccc(F)cc2)s1 (racemic)                =            8.22
10  Cc1nc(C(=O)N2CC(O)CCC2CNC(=O)c2cccc3cccnc23)c(-c2cccc(F)c2)s1 (racemic)                =            8.00
11  Cc1nc(C(=O)N2CCC[C@@H](C)[C@H]2CNC(=O)c2cccc3occc23)c(-c2ccc(F)cc2)s1 (racemic)                =            8.70
12  O=C(NCC1CCC(F)CN1C(=O)c1ccccc1-c1ccccc1)c1cccc2cccnc12 (single isomer, unassigned) [Example 37]                =            9.00
13  O=C(NC[C@@H]1C[C@@H](F)CN1C(=O)c1ccccc1-c1ccccc1)c1cccc2cccnc12                =            7.46
14  Cc1cc2c(C(=O)NCC3CCCC(C)N3C(=O)c3nc(C)sc3-c3ccc(F)cc3)cccc2o1 (racemic)                =            8.15
15  Cc1nc(C(=O)N2CCC[C@@H](C)[C@H]2CNc2cccc3cccnc23)c(-c2ccc(F)cc2)s1 (racemic)                =            7.24
16  Cc1nc(-c2ccccc2)c(C(=O)N2C(C)CCCC2CNC(=O)c2cccc3cccnc23)s1 (racemic)                =            6.70
17  O=C(NCC1C2CCC(CC2)N1C(=O)c1ccccc1-c1ccccc1)c1cccc2cccnc12 (racemic)                >            7.00
18  Cc1ccc(-n2ccnn2)c(C(=O)N2CCC[C@@H](C)[C@H]2CNc2ccc(C(F)(F)F)cn2)c1 (racemic)                =            8.00
19  CC[C@@H]1CCCN(C(=O)c2nc(C)sc2-c2ccc(F)cc2)[C@@H]1CNc1ccc(C(F)(F)F)cn1 (racemic)                =            6.52
20  Cc1cnc(NC[C@@H]2[C@H](C)CCCN2C(=O)c2nc(C)sc2-c2ccc(F)cc2)nc1 (racemic)                =            7.52
21  Cc1nc(C(=O)N2CCC[C@H](C)[C@H]2CNc2ncc(Cl)cn2)c(-c2ccc(F)cc2)s1 (racemic)                =            7.74
22  Cc1nc(C(=O)N2CCC[C@@H](C)[C@H]2CNc2ncc(Cl)cn2)c(-c2ccc(F)cc2)s1 (racemic)                =            8.40
23  Cc1nc(C(=O)N2CCC[C@@H](C)[C@H]2CNc2cncc(Cl)n2)c(-c2ccc(F)cc2)s1 (racemic)                =            5.44
24  Cc1nc(C(=O)N2CCC[C@@H](C(F)(F)F)[C@H]2CNc2ccc(C(F)(F)F)cn2)c(-c2ccccc2)s1 (racemic)                =            8.05
25  COc1c(F)cccc1C(=O)N1CCC[C@@H](C)[C@H]1CNC(=O)c1cccc2cccnc12 (racemic)                >            5.52
26  Cc1ccc(NC[C@@H]2[C@H](C)CCCN2C(=O)c2nc(C)sc2-c2ccc(F)cc2)nc1 (racemic)                =            7.66
27  Cc1nc(-c2ccccc2)c(C(=O)N2CC(NC(C)C)CCC2CNC(=O)c2cccc3cccnc23)s1 (racemic)                >            5.00
